target-desc: CTLA-4 (Homo sapiens)
Sequence (P16410 36-223): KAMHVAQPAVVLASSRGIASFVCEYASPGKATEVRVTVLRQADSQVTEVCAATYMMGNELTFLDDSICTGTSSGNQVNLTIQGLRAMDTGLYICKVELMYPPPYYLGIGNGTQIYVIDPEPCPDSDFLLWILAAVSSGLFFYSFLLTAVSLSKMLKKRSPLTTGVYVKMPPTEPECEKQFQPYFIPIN
method-description: ELISA binding of clones after Affinity Maturation with random library (Tables 10, 11)
condition-summary: CTLA-4 binding ELISA of clones after Affinity Maturation from random (NNS) library; signal/noise ratio; clones of 4th or 5th round
Tick label 1 if ELISA S/N(SA) is 20 or greater. Tick label 0 if ELISA S/N(SA) is less than 20.

// known answers, use as guide
- substance: "C4m#19-5th4w-NN6-15 (GGCLHPFLPIRSVHFCPF; left off: large carriers; small tags and cut ends)"
  assigned-class: "label 1"
- substance: "C4m#19-5th4w-NN6-2 (GGCWHPHLPIVSSHFCLF; C4m#19-5th4w-NN6-2)"
  assigned-class: "label 0"
- substance: "C4m3127-4th-NNS6-66 (GGCAHPHLPIRSVHFCSF; C4m3127-4th-NNS6-66) [Clone C4m3127-4th-NNS6-66]"
  assigned-class: "label 0"
- substance: "C4m3127-4th-NNS6-87 (GGCRHPWLPIVSWHFCSR; C4m3127-4th-NNS6-87) [Clone C4m3127-4th-NNS6-87]"
  assigned-class: "label 1"
- substance: "C4m#19-5th4w-NN6-81 (GGCFHPYLPIRSWHFCSR; C4m#19-5th4w-NN6-81)"
  assigned-class: "label 1"

Item C4m#19-5th4w-NN6-30 (GGCWHPFLPIMSFHFCPY; C4m#19-5th4w-NN6-30) with ELISA S/N(SA) of 20 or above?
label 0

Item C4m3127-4th-NNS6-94 (GGCRHPVLPIWSSHFCPW; C4m3127-4th-NNS6-94) [Clone C4m3127-4th-NNS6-94] with ELISA S/N(SA) of 20 or above?
label 0

Item C4m#19-5th4w-NN6-32 (GGCPHPFLPIWSVHFCPF; C4m#19-5th4w-NN6-32) with ELISA S/N(SA) of 20 or above?
label 1

Values from patent US12565517B2
